Values from patent US11414384B2

- study-target: p300 HAT domain (residues 1287-1666) (Homo sapiens (Human), UniProt Q09472)
- Sequence (Q09472 1287-1666): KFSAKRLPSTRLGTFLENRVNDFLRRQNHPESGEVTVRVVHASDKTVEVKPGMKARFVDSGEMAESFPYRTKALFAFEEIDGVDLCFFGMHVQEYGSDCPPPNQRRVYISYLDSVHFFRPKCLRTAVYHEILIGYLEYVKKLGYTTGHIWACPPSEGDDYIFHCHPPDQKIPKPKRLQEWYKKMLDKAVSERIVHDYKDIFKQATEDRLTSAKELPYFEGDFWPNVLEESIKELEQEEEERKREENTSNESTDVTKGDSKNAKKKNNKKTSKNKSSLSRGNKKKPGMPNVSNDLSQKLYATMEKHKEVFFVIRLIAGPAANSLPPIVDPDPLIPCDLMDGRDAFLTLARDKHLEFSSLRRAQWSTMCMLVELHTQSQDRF
- assay-info: p300 HAT SPA assay (scintillation proximity assay, acetylation of biotinylated H3(1-21) peptide)
- Assay type: biochemical
- reported-conditions: p300 HAT domain; average of at least 2 replicate titrations; read-out: P300 HAT SPA IC50
Lab note: anything with IC50 below 900 nM is marked Fulfilled; values at 900 nM or higher are marked Not fulfilled.

O=C(c1c[nH]c2cc(OCc3ccccc3)ccc12)C(NCCc1ccc(F)cc1)c1ccccc1 (single isomer, unassigned) [61 Isomer 2]; Not fulfilled
NS(=O)(=O)c1ccc(CCNC(C(=O)c2c[nH]c3c(Cl)cccc23)c2ccccc2)cc1 (single isomer, unassigned) [15 Isomer 2]; Not fulfilled

stdin: Item CCNC(=O)c1ccc2c(C(=O)C(NCC(C)c3ccc(C#N)cc3)c3ccccc3)c[nH]c2c1 (single isomer, unassigned) [75 Isomer 1] : IC50 beneath 900 nM, strictly?
stdout: Fulfilled

stdin: Is the reported IC50 for N#Cc1ccc(CCNC(C(=O)c2c[nH]c3cc(-n4ccnc4)ccc23)c2ccccc2)cc1 (single isomer, unassigned) [120 Isomer 1] strictly below 900 nM?
stdout: Not fulfilled

###

- study-target: p300 HAT domain (residues 1287-1666) (Homo sapiens (Human))
- assay-info: p300 HAT SPA assay (scintillation proximity assay, acetylation of biotinylated H3(1-21) peptide)
- Type: biochemical
- reported-conditions: p300 HAT domain; average of at least 2 replicate titrations; read-out: P300 HAT SPA IC50
pIC50: −log10 of the molar value.
Please note: 1 (yes) applies when pIC50 is 6 or greater, and 0 (no) applies otherwise.

Cn1cc(-c2ccc3c(C(=O)C(NCCc4ccc(C(N)=O)cc4)c4ccccc4)cnn3c2)cn1 (single isomer, unassigned) [179 Isomer 1]; 1 (yes)
NS(=O)(=O)c1ccc(CCNC(C(=O)c2c[nH]c3ccc(Cl)cc23)c2ccccc2)cc1 (single isomer, unassigned) [14 Isomer 2]; 0 (no)
NC(=O)c1ccc(CCNC(C(=O)c2c[nH]c3cc(-n4ccnc4)ccc23)c2ccccc2)cc1 (single isomer, unassigned) [181 Isomer 1]; 1 (yes)

stdin: Determine whether this compound has pIC50 no lower than 6: NC(=O)c1ccc(CCNC(C(=O)c2c[nH]c3cc(-c4cnn(CCO)c4)ccc23)c2ccccc2)cc1 (single isomer, unassigned) [182 Isomer 2]
stdout: 1 (yes)

stdin: Record O=C(c1c[nH]c2cc(-c3cccnn3)ccc12)C(NCCc1ccc(Cl)cc1)c1ccccc1 (single isomer, unassigned) [112 Isomer 1] ; criterion: pIC50 no lower than 6. Met?
stdout: 0 (no)

stdin: Does the compound Cn1cc(-c2ccc3c(C(=O)C(NCCc4ccc(C#N)cc4)c4ccccc4)c[nH]c3c2)nn1 (single isomer, unassigned) [114 Isomer 1] have recorded pIC50 that is 6 or more?
stdout: 1 (yes)

stdin: Please tell me: is the compound CCNC(=O)c1ccc2c(C(=O)C(NCC(C)c3ccc(C#N)cc3)c3ccccc3)cnn2c1 (single isomer, unassigned) [69 Isomer 2] at or over 6 in terms of pIC50?
stdout: 0 (no)

stdin: Decide: pIC50 of N#Cc1ccc(CCNC(C(=O)c2c[nH]c3cc(C(=O)NCC(F)(F)F)ccc23)c2ccccc2)cc1 (single isomer, unassigned) [157 Isomer 2] >= 6?
stdout: 1 (yes)

stdin: Entry CCC(CNC(C(=O)c1c[nH]c2ccccc12)c1ccccc1)c1ccc(Cl)cc1 (single isomer, unassigned) [59 Isomer 3] : is its pIC50 no less than 6?
stdout: 0 (no)

stdin: Answer whether pIC50 of CN(C)c1ccc(CCNC(C(=O)c2c[nH]c3ccccc23)c2ccccc2)cc1 (single isomer, unassigned) [39 Isomer 1] is greater than or equal to 6.
stdout: 0 (no)

stdin: Is reported pIC50 greater than or equal to 6 here: Cc1ccc2c(C(=O)C(NCCc3ccc(F)cc3)c3ccccc3)c[nH]c2c1 (single isomer, unassigned) [48 Isomer 1]
stdout: 0 (no)

stdin: Could you please find out whether Cn1cc(-c2ccc3c(C(=O)C(NCCc4ccc(Cl)cc4)c4ccccc4)c[nH]c3c2)nn1 (single isomer, unassigned) [104 Isomer 1] has pIC50 that meets 6 or exceeds it?
stdout: 0 (no)

stdin: For this compound, is measured pIC50 6 or higher? Cc1ccc2c(C(=O)C(NCCc3ccc(S(N)(=O)=O)cc3)c3ccccc3)c[nH]c2c1 (single isomer, unassigned) [56 Isomer 2]
stdout: 0 (no)

stdin: Determine whether measured pIC50 meets or exceeds 6 for NS(=O)(=O)c1ccc(CCNC(C(=O)c2c[nH]c3cc(-n4ccnc4)ccc23)c2ccccc2)cc1 (single isomer, unassigned) [119 Isomer 1]
stdout: 0 (no)

###

- study-target: p300 HAT domain (residues 1287-1666) (Homo sapiens (Human))
- assay-info: p300 HAT SPA assay (scintillation proximity assay, acetylation of biotinylated H3(1-21) peptide)
- Assay type: biochemical
- reported-conditions: p300 HAT domain; average of at least 2 replicate titrations; read-out: P300 HAT SPA IC50
property-name: IC50

These recorded examples may help you get a feel for the data.
COCCn1cc(-c2ccc3c(C(=O)C(NCCc4ccc(C(N)=O)cc4)c4ccccc4)c[nH]c3c2)cn1 (single isomer, unassigned) [183 Isomer 1]; > 5 µM
CCC(CNC(C(=O)c1c[nH]c2ccccc12)c1ccccc1)c1ccc(Cl)cc1 (single isomer, unassigned) [59 Isomer 1]; > 30 µM

# context switch: different compound, same IC50
stdin: Checklist item: IC50 tested on p300 HAT domain (residues 1287-1666) (Homo sapiens (Human)), entry CC(CNC(C(=O)c1cnn2cc(C(=O)NC[C@@H](C)O)ccc12)c1ccccc1)c1ccc(C#N)cc1 (single isomer, unassigned) [70 Isomer 1] , value?
stdout: > 2 µM

###

- study-target: full length p300 (Homo sapiens (Human))
- Sequence (Q09472 whole entry): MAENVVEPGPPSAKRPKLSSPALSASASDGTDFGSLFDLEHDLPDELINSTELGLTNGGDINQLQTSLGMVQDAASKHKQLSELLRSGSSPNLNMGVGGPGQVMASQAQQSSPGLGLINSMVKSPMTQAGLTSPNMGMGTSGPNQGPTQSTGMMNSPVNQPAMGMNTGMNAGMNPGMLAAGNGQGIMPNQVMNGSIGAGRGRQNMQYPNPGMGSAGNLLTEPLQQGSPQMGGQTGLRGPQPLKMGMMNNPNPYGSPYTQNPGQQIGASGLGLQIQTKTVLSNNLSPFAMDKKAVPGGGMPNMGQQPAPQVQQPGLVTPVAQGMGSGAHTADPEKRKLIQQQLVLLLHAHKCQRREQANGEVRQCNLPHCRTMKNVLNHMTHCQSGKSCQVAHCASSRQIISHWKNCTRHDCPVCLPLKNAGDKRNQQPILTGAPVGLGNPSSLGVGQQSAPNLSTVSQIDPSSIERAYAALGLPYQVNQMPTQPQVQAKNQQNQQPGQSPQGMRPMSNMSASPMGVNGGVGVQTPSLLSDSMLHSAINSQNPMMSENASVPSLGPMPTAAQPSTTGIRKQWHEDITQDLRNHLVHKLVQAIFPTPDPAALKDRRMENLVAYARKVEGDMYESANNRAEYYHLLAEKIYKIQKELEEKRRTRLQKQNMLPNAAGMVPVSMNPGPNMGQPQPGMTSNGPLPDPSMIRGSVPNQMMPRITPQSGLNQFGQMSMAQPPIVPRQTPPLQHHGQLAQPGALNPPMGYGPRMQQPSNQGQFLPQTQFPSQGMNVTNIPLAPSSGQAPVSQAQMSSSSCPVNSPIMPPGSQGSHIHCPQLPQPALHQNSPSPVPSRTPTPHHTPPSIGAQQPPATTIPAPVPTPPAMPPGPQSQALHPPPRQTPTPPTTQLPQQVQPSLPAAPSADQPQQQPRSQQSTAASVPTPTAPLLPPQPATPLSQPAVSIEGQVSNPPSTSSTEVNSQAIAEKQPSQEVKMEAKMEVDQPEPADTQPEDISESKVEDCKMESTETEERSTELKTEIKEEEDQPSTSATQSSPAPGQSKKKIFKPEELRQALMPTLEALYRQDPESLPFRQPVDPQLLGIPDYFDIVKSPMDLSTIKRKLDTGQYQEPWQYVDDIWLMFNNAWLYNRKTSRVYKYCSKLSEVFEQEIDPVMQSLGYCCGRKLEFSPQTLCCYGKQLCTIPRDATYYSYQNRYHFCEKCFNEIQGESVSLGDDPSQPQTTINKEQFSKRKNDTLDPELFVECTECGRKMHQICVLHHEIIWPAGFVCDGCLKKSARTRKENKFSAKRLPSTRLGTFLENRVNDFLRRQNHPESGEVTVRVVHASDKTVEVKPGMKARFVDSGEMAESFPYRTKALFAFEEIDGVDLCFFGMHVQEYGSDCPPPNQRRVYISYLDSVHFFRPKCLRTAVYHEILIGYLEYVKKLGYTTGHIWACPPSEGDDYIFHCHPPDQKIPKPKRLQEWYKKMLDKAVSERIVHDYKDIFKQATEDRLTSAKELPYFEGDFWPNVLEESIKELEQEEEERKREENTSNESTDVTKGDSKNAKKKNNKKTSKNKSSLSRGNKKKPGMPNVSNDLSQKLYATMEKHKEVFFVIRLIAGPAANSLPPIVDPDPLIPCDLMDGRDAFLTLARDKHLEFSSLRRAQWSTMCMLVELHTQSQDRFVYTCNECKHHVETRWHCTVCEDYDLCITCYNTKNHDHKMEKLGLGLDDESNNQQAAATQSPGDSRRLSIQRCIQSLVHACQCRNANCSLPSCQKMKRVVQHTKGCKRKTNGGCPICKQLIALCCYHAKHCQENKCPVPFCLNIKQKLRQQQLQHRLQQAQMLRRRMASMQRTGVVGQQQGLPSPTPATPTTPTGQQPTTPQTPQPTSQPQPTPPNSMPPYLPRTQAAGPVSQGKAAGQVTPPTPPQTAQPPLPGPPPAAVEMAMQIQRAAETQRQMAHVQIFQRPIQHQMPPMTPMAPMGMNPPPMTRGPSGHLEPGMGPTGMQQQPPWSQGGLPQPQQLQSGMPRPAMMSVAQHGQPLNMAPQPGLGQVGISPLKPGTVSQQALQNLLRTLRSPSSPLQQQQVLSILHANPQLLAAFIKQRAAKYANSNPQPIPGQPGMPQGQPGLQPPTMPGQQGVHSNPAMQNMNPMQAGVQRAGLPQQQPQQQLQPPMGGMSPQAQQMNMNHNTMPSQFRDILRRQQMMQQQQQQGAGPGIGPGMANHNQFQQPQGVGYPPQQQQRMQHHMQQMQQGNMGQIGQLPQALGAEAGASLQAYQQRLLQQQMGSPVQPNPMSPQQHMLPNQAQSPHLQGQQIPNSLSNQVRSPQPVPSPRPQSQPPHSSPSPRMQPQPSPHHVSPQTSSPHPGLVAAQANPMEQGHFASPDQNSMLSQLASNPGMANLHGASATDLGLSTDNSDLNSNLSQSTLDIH
Please assign Not satisfied whenever IC50 is at or above 200 nM, and Satisfied whenever it is below.

Observe how each entry below is paired with its result.
COc1ccc(CCNC(C(=O)c2c[nH]c3c(CCC(=O)N(C)C)cccc23)c2ccccc2)cc1 (single isomer, unassigned) [29 Isomer 2]; Not satisfied
O=C(c1cnc2ccccn12)C(NCCc1ccc(Cl)cc1)c1ccccc1 (single isomer, unassigned) [46 Isomer 2]; Not satisfied
CCNC(=O)c1ccc2c(C(=O)[C@@H](NCCc3ccc(C#N)cc3)c3ccccc3)c[nH]c2c1 (single isomer, unassigned) [146 Isomer 2]; Satisfied

stdin: Just wondering, is IC50 of CN1CCN(c2ccc3c(C(=O)C(NCCc4ccc(F)cc4)c4ccccc4)c[nH]c3c2)CC1 (single isomer, unassigned) [123 Isomer 2] below 200 nM?
stdout: Satisfied

stdin: Please state whether IC50 is below 200 nM for NS(=O)(=O)c1ccc(CCNC(C(=O)c2c[nH]c3ncccc23)c2ccccc2)cc1 (single isomer, unassigned) [33 Isomer 2]
stdout: Not satisfied

stdin: Hello, is IC50 of the following molecule strictly smaller than 200 nM? CN(C)C(=O)Cc1ccc2c(C(=O)C(NCCc3ccc(C#N)cc3)c3ccccc3)c[nH]c2c1 (single isomer, unassigned) [63 Isomer 1]
stdout: Satisfied

###

- study-target: p300 HAT domain (residues 1287-1666) (Homo sapiens (Human), UniProt Q09472)
- assay-info: p300 HAT SPA assay (scintillation proximity assay, acetylation of biotinylated H3(1-21) peptide)
- Assay type: biochemical
- reported-conditions: p300 HAT domain; average of at least 2 replicate titrations; read-out: P300 HAT SPA IC50
pIC50: −log10 of the molar value.
pIC50: recorded values

Cc1cccc2c(C(=O)C(NC(C)Cc3ccc(Cl)cc3Cl)c3ccccc3)c[nH]c12 (single isomer, unassigned) [68 Isomer 2]; < 4.52
O=C(c1c[nH]c2ccccc12)C(NCCN1CCOCC1)c1ccccc1 (single isomer, unassigned) [18 Isomer 2]; < 4.22
Cn1cc(-c2ccc3c(C(=O)C(NCCc4ccc(S(N)(=O)=O)cc4)c4ccccc4)c[nH]c3c2)nn1 (single isomer, unassigned) [116 Isomer 1]; < 5.30
NC(=O)c1ccc(CCNC(C(=O)c2c[nH]c3cc(-n4ccnc4)ccc23)c2ccccc2)cc1 (single isomer, unassigned) [181 Isomer 2]; < 5.30
CC(Cc1ccc(Cl)cc1)NC(C(=O)c1c[nH]c2ccccc12)c1ccccc1 (single isomer, unassigned) [27 Isomer 4]; < 4.22

stdin: I would be grateful if you could share the reported pIC50 for CC(Cc1ccc(Cl)cc1)NC(C(=O)c1c[nH]c2ccccc12)c1ccccc1 (single isomer, unassigned) [27 Isomer 3] .
stdout: < 4.22

stdin: Requested field: pIC50. Item: O=C(c1c[nH]c2ccccc12)C(NCCc1cn[nH]c1)c1ccccc1 (single isomer, unassigned) [34 Isomer 1]
stdout: < 4.22

###

- Test system: acetylation of chromatin at H3K18 (catalyzed by p300 and CBP) in HCT-116 cells
- assay-info: H3K18Ac MSD cellular assay
- Assay type: cell-based
- reported-conditions: 2 hr treatment, average of at least 2 replicate titrations
pEC50: −log10 of the molar value.
Item-by-item account of pEC50

Check out these entries, answers already filled in.
N#Cc1ccc(CCNC(C(=O)c2c[nH]c3cc(-n4ccnc4)ccc23)c2ccccc2)cc1 (single isomer, unassigned) [120 Isomer 1]; 6.71
CC(Cc1ccc(Cl)cc1Cl)NC(C(=O)c1c[nH]c2cc(-c3cnn(C)c3)ccc12)c1ccccc1 (single isomer, unassigned) [97 Isomer 4]; < 5.00

Next item in the queue.
stdin: Return reported pEC50; argument: CC(Cc1ccc(Cl)cc1Cl)NC(C(=O)c1c[nH]c2cc(-c3cnn(C)c3)ccc12)c1ccccc1 (single isomer, unassigned) [97 Isomer 3]
stdout: < 5.00
